# EXPERIMENT DESCRIPTION: Direct cellular cytotoxicity in uninfected control wells
# Assay type: cell-based, human
# CONDITION SET: foreskin cell monolayers; uninfected human foreskin monolayers; tenfold dilutions; 2 days; read-out: Toxic Concentration
QUANTITY KIND: MCC at 48 h (mM)
The answer is to be given in mM; state only the numeric part.

Sample answers from the record:
molecule=CC(=O)OC[C@H]1O[C@@H](n2cc(C(F)F)c(=O)[nH]c2=O)[C@@H](F)[C@@H]1OC(C)=O observed=1
molecule="CC(=O)OC[C@H]1O[C@@H](n2cc(C)c(=O)[nH]c2=O)[C@@H](F)[C@@H]1OC(C)=O [R=CH3, R^1=Ac, X=F, reference compound]" observed=1

--- query ---
-- ask Tell us which MCC at 48 h value is on record for "O=c1[nH]c(=O)n([C@@H]2O[C@H](CO)[C@@H](O)[C@@H]2F)cc1C(F)F"
-- reply 1
